I'd appreciate it if you could supply inhibition at 1 µM values for the items below.
target: 5-HT6 receptor (Homo sapiens, UniProt P50406); construct: purchased PerkinElmer; test: Radioligand binding assay, serotoninergic 5-HT6 receptors; conditions: binding assay result in %, Table 5a;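 note: test compound at 1 µM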
Sequence (P50406 whole entry): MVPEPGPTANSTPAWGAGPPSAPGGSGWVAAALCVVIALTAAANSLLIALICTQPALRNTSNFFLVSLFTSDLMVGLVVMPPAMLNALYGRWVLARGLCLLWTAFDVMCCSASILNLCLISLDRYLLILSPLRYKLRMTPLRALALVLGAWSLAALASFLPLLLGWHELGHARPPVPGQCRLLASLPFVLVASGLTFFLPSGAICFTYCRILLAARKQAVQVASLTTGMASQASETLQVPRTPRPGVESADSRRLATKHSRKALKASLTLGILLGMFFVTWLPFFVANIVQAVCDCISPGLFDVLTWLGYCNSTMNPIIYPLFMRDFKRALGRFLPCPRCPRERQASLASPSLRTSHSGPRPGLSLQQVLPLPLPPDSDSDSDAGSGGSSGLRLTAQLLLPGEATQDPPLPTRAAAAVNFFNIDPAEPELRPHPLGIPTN
Numbers only, in %.

Known results for compounds:
compound=O=S(=O)(NCC1CN(CCOc2cccc3c2OCCO3)C1)c1ccc2ccccc2c1 value_kind="inhibition at 1 µM" measured_value=44
compound="O=S(=O)(NC1CCN(CCCc2c[nH]c3ccc(Cl)cc23)C1)c1ccccc1 (stereo not shown)" value_kind="inhibition at 1 µM" measured_value=75
compound="O=S(=O)(NC1CCN(CCCc2c[nH]c3ccc(Cl)cc23)C1)c1ccc(F)cc1 (stereo not shown)" value_kind="inhibition at 1 µM" measured_value=84
compound=O=S(=O)(N[C@H]1CCN(CCCc2noc3cc(F)ccc23)C1)c1csc2ccccc12 value_kind="inhibition at 1 µM" measured_value=99
compound=O=S(=O)(NC1CN(CCOc2cccc3[nH]ccc23)C1)c1ccc2ccccc2c1 value_kind="inhibition at 1 µM" measured_value=43
compound=O=S(=O)(NCC1CN(CCOc2cccc3c2OCCO3)C1)c1cccs1 value_kind="inhibition at 1 µM" measured_value=20

Please report inhibition at 1 µM for every entry that follows.
1. O=S(=O)(NCC1CCN(CCOc2cccc3ccccc23)C1)c1csc2ccccc12 (stereo not shown)
2. O=S(=O)(NCC1CN(CCOc2nsc3ccccc23)C1)c1ccc2ccccc2c1
3. O=S(=O)(NC1CCN(CCCc2noc3cc(F)ccc23)C1)c1cccc2ccccc12 (stereo not shown)

### Response
1: 84; 2: -56; 3: 97

----------
molecular target: dopaminergic receptors D3 (Homo sapiens, UniProt P35462); assay: Radioligand binding assay, dopaminergic D3 receptors; settings: test compound 1×10^−6 M
Sequence (P35462 whole entry): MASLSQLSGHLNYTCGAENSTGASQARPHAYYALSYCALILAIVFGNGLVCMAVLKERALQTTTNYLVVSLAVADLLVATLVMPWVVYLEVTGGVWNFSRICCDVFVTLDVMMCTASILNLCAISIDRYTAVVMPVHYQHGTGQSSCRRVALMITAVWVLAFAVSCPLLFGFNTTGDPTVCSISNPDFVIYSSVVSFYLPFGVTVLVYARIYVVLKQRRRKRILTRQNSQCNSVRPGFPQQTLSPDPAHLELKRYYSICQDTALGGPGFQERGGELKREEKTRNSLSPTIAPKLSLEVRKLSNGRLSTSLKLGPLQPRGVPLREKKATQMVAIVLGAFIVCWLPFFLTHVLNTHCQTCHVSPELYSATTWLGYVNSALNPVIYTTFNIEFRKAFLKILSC
value kind: D3 [%] (%)
Numbers only, in %.

Known results for compounds:
compound="O=S(=O)(NC1CCN(CCOc2cccc3c2OCCO3)C1)c1ccc2ccccc2c1 (centres unmarked)" value_kind="D3 [%]" unit_annotation=% measured_value=78
compound="Cc1cccc(S(=O)(=O)NC2CCN(CCOc3cccc4c3OCCO4)C2)c1 (centres unmarked)" value_kind="D3 [%]" unit_annotation=% measured_value=40
compound="O=S(=O)(NC1CCN(CCOc2cccc3c2OCCO3)C1)c1ccccc1 (centres unmarked)" value_kind="D3 [%]" unit_annotation=% measured_value=56
compound=O=S(=O)(NC1CN(CCOc2cccc3c2OCCO3)C1)c1ccc(Cl)cc1 value_kind="D3 [%]" unit_annotation=% measured_value=60
compound=O=S(=O)(NCC1CN(CCCc2noc3cc(F)ccc23)C1)c1cc2ccccc2s1 value_kind="D3 [%]" unit_annotation=% measured_value=79

Please report D3 [%] for every entry that follows.
1. O=S(=O)(NC1CCN(CCOc2nsc3ccccc23)CC1)c1ccc2ccccc2c1
2. O=S(=O)(NC1CCN(CCOc2cccc3[nH]ccc23)CC1)c1ccc2ccccc2c1

### Response
39
83

Please report D3 [%] for every entry that follows.
1. O=S(=O)(NC1CCN(CCOc2cccc3c2OCCO3)C1)c1cccc2ccccc12 (centres unmarked)
2. O=S(=O)(NC1CCN(CCOc2cccc3ccccc23)CC1)c1cccc(O)c1
3. Cc1cccc(S(=O)(=O)NCC2CCN(CCCc3noc4cc(F)ccc34)CC2)c1
4. O=S(=O)(NC1CN(CCOc2cccc3c2OCCO3)C1)c1cccc(F)c1

### Response
[67, 93, 38, 23]

Please report D3 [%] for every entry that follows.
1. O=S(=O)(NC1CN(CCOc2cccc3c2OCCO3)C1)c1cccc2ccccc12
2. O=S(=O)(NC1CCN(CCOc2cccc3ccccc23)CC1)c1ccc2ccccc2c1
3. Cc1cccc(S(=O)(=O)NC2CCN(CCOc3cccc4c3OCCO4)CC2)c1
4. O=S(=O)(NCC1CCN(CCCc2noc3cc(F)ccc23)CC1)c1cccc2ccccc12
5. O=S(=O)(NC1CCN(CCOc2cccc3[nH]ccc23)CC1)c1ccccc1
6. O=S(=O)(NC1CCN(CCOc2cccc3c2OCCO3)CC1)c1cccc2ccccc12

### Response
1: 105; 2: 30; 3: 20; 4: 66; 5: 93; 6: 74

----------
system: σ receptors; experiment: Radioligand binding assay, σ receptors; conditions: rat cerebral cortex, [3H]DTG 8 nM
value kind: σ [%] (%)
Numbers only, in %.

Known results for compounds:
compound="Cc1c(S(=O)(=O)NC2CCN(CCCc3noc4cc(F)ccc34)C2)sc2ccc(Cl)cc12 (centres unmarked)" measured_value=60
compound="Cc1c(S(=O)(=O)NC2CCN(CCCc3noc4cc(F)ccc34)C2)sc2ccc(F)cc12 (centres unmarked)" measured_value=70
compound="COc1ccc2cc(S(=O)(=O)NC3CCN(CCCc4noc5cc(F)ccc45)C3)ccc2c1 (centres unmarked)" measured_value=59
compound=Cc1c(S(=O)(=O)N[C@@H]2CCN(CCCc3noc4cc(F)ccc34)C2)sc2ccc(Cl)cc12 measured_value=90
compound="O=S(=O)(NCC1CCN(CCOc2cccc3ccccc23)C1)c1ccc2ccccc2c1 (centres unmarked)" measured_value=82
compound="O=S(=O)(NC1CCN(CCCc2c[nH]c3ccc(F)cc23)C1)c1ccc(Cl)cc1 (centres unmarked)" measured_value=48

Please report σ [%] for every entry that follows.
1. CC1(C)Cc2cccc(OCCN3CCC(NS(=O)(=O)c4ccc5ccccc5c4)CC3)c2O1
2. O=S(=O)(NC1CCN(CCOc2nsc3ccccc23)C1)c1ccc2ccccc2c1 (centres unmarked)

### Response
1. 56
2. 54

----------
Target: 5-HT6 receptor (Homo sapiens)
Construct: purchased PerkinElmer
Assay: Radioligand binding assay, serotoninergic 5-HT6 receptors
Conditions: binding assay result in %, Table 5a
From the text: The specific ligand binding to the receptors is defined as the difference between the total binding and the non-specific binding determined in the presence of the excess of unlabelled ligand. The results are expressed as a percent of control specific binding ((measured specific binding/control specific binding)×100) and as a percent inhibition of control specific binding (100−((measured specific binding/control specific binding)×100)) obtained in the presence of the test compounds. […]
Returns met if the recorded inhibition at 1 µM is greater than or equal to 80%, and not met otherwise.

See these solved cases before continuing.
compound="O=C1Cc2cc(S(=O)(=O)NCC3CN(CCOc4cccc5c4OCCO5)C3)ccc2N1 [Compound 189]" measured_on="5-HT6 receptor (Homo sapiens)" label_class="not met"
compound="O=S(=O)(NC1CCN(CCOc2nsc3ccccc23)C1)c1ccc2ccccc2c1 (stereo not drawn) [Compound 39]" measured_on="5-HT6 receptor (Homo sapiens)" label_class=met
compound="O=S(=O)(NCC1CN(CCCc2c[nH]c3ccc(F)cc23)C1)c1ccc2ccccc2c1 [Compound 160]" measured_on="5-HT6 receptor (Homo sapiens)" label_class=met
compound="O=S(=O)(NCC1CCN(CCCc2noc3cc(F)ccc23)C1)c1ccc2c(c1)CCO2 (stereo not drawn) [Compound 256]" measured_on="5-HT6 receptor (Homo sapiens)" label_class="not met"
compound="COc1cccc(S(=O)(=O)NCC2CCN(CCCc3noc4cc(F)ccc34)C2)c1 (stereo not drawn) [Compound 250]" measured_on="5-HT6 receptor (Homo sapiens)" label_class="not met"
compound="Cc1ccc2sc(S(=O)(=O)N[C@H]3CCN(CCCc4noc5cc(F)ccc45)C3)cc2c1 [Compound 229]" measured_on="5-HT6 receptor (Homo sapiens)" label_class=met
compound="Cc1c(S(=O)(=O)NCC2CCN(CCOc3cccc4ccccc34)C2)sc2ccc(Cl)cc12 (stereo not drawn) [Compound 272]" measured_on="5-HT6 receptor (Homo sapiens)" label_class="not met"
compound="O=S(=O)(NCC1CCN(CCOc2cccc3ccccc23)C1)c1ccc(F)c(F)c1 (stereo not drawn) [Compound 278]" measured_on="5-HT6 receptor (Homo sapiens)" label_class=met

### Prompt Kindly determine if inhibition at 1 µM recorded for Cc1cc(S(=O)(=O)NC2CCN(CCCc3noc4cc(F)ccc34)C2)c(C)s1 (stereo not drawn) [Compound 221] is above or exactly 80%.
### Response met

### Prompt Kindly determine if inhibition at 1 µM recorded for O=S(=O)(NC1CCN(CCCc2noc3cc(F)ccc23)C1)c1csc2ccccc12 (stereo not drawn) [Compound 26] is above or exactly 80%.
### Response met

### Prompt Kindly determine if inhibition at 1 µM recorded for O=S(=O)(NCC1CN(CCOc2cccc3c2OCCO3)C1)c1ccc(F)cc1 [Compound 182] is above or exactly 80%.
### Response not met

### Prompt Kindly determine if inhibition at 1 µM recorded for O=S(=O)(NCC1CN(CCCc2noc3cc(F)ccc23)C1)c1ccc(Cl)s1 [Compound 155] is above or exactly 80%.
### Response not met

----------
test system: α1 adrenergic receptors (rat cerebral cortex); assay: Radioligand binding assay, adrenergic α1 receptors; details: test compound 1×10^−6 M
value kind: α1 [%] (%)
Give bare numbers, in %.

Known results for compounds:
compound="O=S(=O)(NCC1CN(CCOc2cccc3ccccc23)C1)c1csc2ccccc12 [Compound 171]" measured_value=50
compound="COc1cccc(S(=O)(=O)NCC2CN(CCCc3noc4cc(F)ccc34)C2)c1 [Compound 143]" measured_value=97
compound="O=S(=O)(NCC1CN(CCOc2cccc3c2OCCO3)C1)c1ccc(I)cc1 [Compound 193]" measured_value=71
compound="O=S(=O)(NCC1CN(CCCc2noc3cc(F)ccc23)C1)c1ccc(-c2ccccc2)cc1 [Compound 135]" measured_value=88
compound="COc1ccc2cc(S(=O)(=O)N[C@@H]3CCN(CCCc4noc5cc(F)ccc45)C3)ccc2c1 [Compound 230]" measured_value=83

Please report α1 [%] for every entry that follows.
1. Cn1ccc2cc(S(=O)(=O)NCC3CN(CCOc4cccc5ccccc45)C3)ccc21 [Compound 169]
2. COc1ccc2cc(S(=O)(=O)NC3CCN(CCCc4noc5cc(F)ccc45)C3)ccc2c1 (centres unmarked) [Compound 227]
3. O=S(=O)(NCC1CN(CCCc2noc3cc(F)ccc23)C1)c1ccc2scnc2c1 [Compound 132]

### Response
74
85
86
